Parameter activity, negative = cell killing: see the listing below.
test: Drug repurposing screens with cells derived from glioblastoma tumor samples (AID 1345199); details: GBM patient neurospheres viability, ATP luminescence, 48 h; at 45.9 µM (top of the series); tumour line D; note: % is set by controls: 0 for no effect and ±100 for the full control effect; nearly all actives have a fitted effect of over 40% in size
Records with an inconclusive call do not appear.
recorded_endpoint: activity, negative = cell killing (%)

* CCCCCCCCOC(=O)c1ccccc1C(=O)OCCCCCCCC | 6.99
* N#CN | -4.31
* C[C@]12CC[C@H]3[C@@H](CCC4=C(O)C(=O)CC[C@@H]43)[C@@H]1CC[C@@H]2OC(=O)CCC1CCCC1 | -14.1
* CCC1C(C)=NN=C(c2ccc(OC)c(OC)c2)c2cc(OC)c(OC)cc21 (stereo not drawn) | -19
* CC(=O)OC1CN2CCC1CC2 (stereo not drawn) | 12
* S=C(S)N1CCNCC1 | -4.89
* c1ccc2sc(SNC3CCCCC3)nc2c1 | -11.7
* O=c1[nH]cc(N(CCCl)CCCl)c(=O)[nH]1 | -17.9
* COC(=O)[C@@H]1[C@H]2CC[C@@H](C[C@H]1OC(=O)c1ccccc1)N2C | 4.05
* Clc1ccc(Cl)cc1 | -0.0641
* CCCCCl | -17.7
* C[N+]1([O-])[C@@H]2CC(OC(=O)[C@H](CO)c3ccccc3)C[C@H]1[C@@H]1O[C@@H]12 (stereo partly drawn) | -17.4
* O=P(O)(O)C(Cl)(Cl)P(=O)(O)O | -11.3

====

tested on: CP211; assay: qHTS profiling for inhibitors of Plasmodium falciparum proliferation (AID 504749); note: nearly all actives have a fitted effect of over 60% in size; note: potency is the fitted concentration of half-maximal effect; settings: P. falciparum in erythrocytes, SYBR Green DNA, 72 h; series mostly up to 28.7 µM
Results filed as inconclusive are left out. The source made the active and inactive calls. The call rests on the fitted dose curve; in most records, active means well fitted inhibition curve with a large enough effect; inconclusive means small, poorly fitted or top-dose-only effect; inactive means flat fitted curve, though single readings scatter.
recorded_endpoint: Potency

* CCOC(=O)c1ccccc1C(=O)OCC | inactive
* O=S(=O)(O)c1cc(O)ccc1O | inactive
* O=Cc1ccco1 | inactive
* O=C1CCO1 | inactive
* C[C@@H](Cc1ccccc1)NCCC(c1ccccc1)c1ccccc1 | inactive
* CN1C2CCC1CC(OC(c1ccccc1)c1ccc(Cl)cc1)C2 (centres undefined) | 15.1 µM (active)
* O=[N+]([O-])c1ccc(F)c([N+](=O)[O-])c1 | inactive
* S=C(S)N1CCNCC1 | inactive
* ClC1C(Cl)C(Cl)C(Cl)C(Cl)C1Cl (centres undefined) | inactive
* CC(=O)OO | inactive
* CCCCCCCCOC(=O)c1ccccc1C(=O)OCCCCCCCC | inactive
* C[N+]1(C)C2CCC1CC(OC(=O)c1c[nH]c3ccccc13)C2 (centres undefined) | inactive
* N#CC1(N2CCCCC2)CCCCC1 | inactive
* CCC1(c2ccccc2)C(=O)NC(=O)NC1=O | inactive

====

Target: D(1A) dopamine receptor (Homo sapiens) (UniProt P21728)
Sequence (P21728 whole entry, looked up): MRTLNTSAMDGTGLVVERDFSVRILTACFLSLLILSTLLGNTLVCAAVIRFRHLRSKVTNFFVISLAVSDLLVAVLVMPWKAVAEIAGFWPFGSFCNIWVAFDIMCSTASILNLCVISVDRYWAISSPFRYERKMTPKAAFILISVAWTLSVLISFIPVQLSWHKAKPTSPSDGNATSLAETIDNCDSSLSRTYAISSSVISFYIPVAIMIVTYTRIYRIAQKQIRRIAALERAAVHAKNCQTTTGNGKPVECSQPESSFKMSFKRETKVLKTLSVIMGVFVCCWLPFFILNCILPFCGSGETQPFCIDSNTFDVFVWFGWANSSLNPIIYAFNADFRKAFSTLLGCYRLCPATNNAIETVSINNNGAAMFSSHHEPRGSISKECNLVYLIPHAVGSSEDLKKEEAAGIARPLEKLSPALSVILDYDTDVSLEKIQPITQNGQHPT
Assay: HTS Assay for Allosteric Agonists of the Human D1 Dopamine Receptor: Primary Screen for Antagonists (AID 488983);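 note: calcium flux response to an EC80 dopamine challenge measured with no-wash dye; nearly all actives have a fitted effect of over 65% in size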
Conditions: D1 receptor cell assay, antagonist mode, qHTS titration; series mostly up to 41.8 µM
Description: Dopamine receptors (DARs) are involved in the etiology and/or therapy of a number of neuropsychiatric and endocrine disorders. […] Freshly passaged cells are plated in 1536 well black, clear bottom plates at a density of 4000 cells/well in 3 ul of complete media containing 1x tetracycline inducer. […] Following the 180 second read, 1 ul of an EC80 of dopamine is delivered by an onboard pipette head. […]
Inconclusive results are not listed. Calls of active or inactive are those of the source. Calls come from the whole dose curve; as a rule, active = well fitted inhibition curve with a large enough effect; inconclusive = small, poorly fitted or top-dose-only effect, or effect the other way; inactive = flat fitted curve, though single readings scatter.
Classes used: true (active), false (inactive)

* CC(=O)OCC1=C(C(=O)O)N2C(=O)[C@@H](NC(=O)CCC[C@@H](N)C(=O)O)[C@H]2SC1 | false
* C[N+]1(C)CCN(c2ccccc2)CC1 | false
* CN1CCc2cccc(Cl)c2CC1 | true
* COC(=O)N1CCN(C(=O)Cc2ccc(Cl)c(Cl)c2)C(CN2CCCC2)C1 (configuration not stated) | false
* NNC(=O)c1ccc(O)cc1 | false
* C#CCN[C@H](C)Cc1ccccc1 | false
* CCn1cnc2c(Nc3cccc(Cl)c3)nc(N[C@@H]3CCCC[C@@H]3N)nc21 | false
* CCS(=O)(=O)Nc1cccc(C(=C2CCCCC2)c2cnc[nH]2)c1 | false
* Clc1ccc(N2CC3CCC(C2)N3)nn1 | false
* CCCC[N+]1(C)C2CC(OC(=O)[C@H](CO)c3ccccc3)CC1C1OC12 (some centres not stated) | false
* CCCN(CCC)C1Cc2cc(OC)c(OC)cc2C1 | false
* NC(=O)CI | false
